Each entry below carries its recorded MIC.
test system: Mycobacterium tuberculosis H37Rv (ATCC 27294); experiment: Antitubercular REMA (Resazurin Microtiter Assay); assay type: cell-based; details: Mycobacterium tuberculosis, 168 h, read-out: Mt MIC

O=C(/C=C/C=C/c1ccccc1)c1ccc(Cl)cc1: > 200 µM

Provide the documented MIC with Mycobacterium tuberculosis H37Rv (ATCC 27294) as the system for O=C/C=C/c1ccccc1 [Compound 1, Cinnamaldehyde, reference compound]
> 200 µM

Next compound up: O=C(/C=C/C=C/c1ccccc1)c1ccc(O)cc1
81.9 µM

Entry O=C(/C=C/C=C/c1ccccc1)c1ccc(Br)cc1 please
> 200 µM

Value source: paper PMC6151560
